Assay: Rat liver microsome stability assay
Assay type: in vitro ADME
Settings: rat liver microsomes (male Sprague-Dawley), 0.5 μM test compound, 0.25 mg/mL microsomal protein, pH 7.4, 37° C.; read-out: Stability in rat liver microsomes (t1/2 in minutes)
parameter-measured: half-life at 0.5 μM (min)
Respond numerically; units are min and should not be typed.

Problem: Tell me the measured half-life at 0.5 μM of CN(C)S(=O)(=O)c1cnc(NCC2CC2)c(-c2cn(C)c(=O)c3[nH]ccc23)c1 , please.
Solution: 24

Problem: Tell me the measured half-life at 0.5 μM of Cc1ccc(F)cc1Oc1ccc(S(C)(=O)=O)cc1-c1cn(C)c(=O)c2[nH]ccc12 , please.
Solution: 4

***
Problem: Tell me the measured half-life at 0.5 μM of CN(C)S(=O)(=O)Nc1ccc(Oc2ccccc2)c(-c2cn(C)c(=O)c3[nH]ccc23)c1 , please.
Solution: 3

Problem: Tell me the measured half-life at 0.5 μM of Cn1cc(-c2cc(NS(=O)(=O)CCN3CCOCC3)ccc2Oc2ccc(F)cc2F)c2cc[nH]c2c1=O , please.
Solution: 15

Problem: Tell me the measured half-life at 0.5 μM of Cn1cc(-c2cc(S(=O)(=O)C(F)(F)F)ccc2NCC2CC2)c2cc[nH]c2c1=O , please.
Solution: 6

Problem: Tell me the measured half-life at 0.5 μM of Cn1cc(-c2cc(NS(C)(=O)=O)ccc2Oc2cccnc2)c2cc[nH]c2c1=O , please.
Solution: 19

Problem: Tell me the measured half-life at 0.5 μM of Cn1cc(-c2cc(NS(=O)(=O)CC(F)(F)F)ccc2OC2CCCOC2)c2cc[nH]c2c1=O (centres unmarked) , please.
Solution: 16

###

Tested on: RPMI-8226
Assay: Proliferation panel assay, Multiple Myeloma RPMI-8226
Assay type: cell-based
Details: Homo sapiens, read-out: Cellular Proliferation EC50
parameter-measured: pEC50
# pEC50 = -log10(concentration in molar units)

Problem: Tell me the measured pEC50 of Cn1cc(-c2cc(NS(C)(=O)=O)ccc2Oc2ccccc2)c2cc[nH]c2c1=O [Example 4] , please.
Solution: 7.96

***
Problem: Tell me the measured pEC50 of Cn1nc(-c2cc(NS(C)(=O)=O)ccc2Oc2ccccc2)c2cc(C(N)=O)[nH]c2c1=O [Example 78] , please.
Solution: 5.85

###

Reported values of half-life at 0.5 μM for individual entries
Experiment: Human liver microsome stability assay
Assay type: in vitro ADME
Settings: both sexes, human, microsomes, pH 7.4

Problem: Tell me the measured half-life at 0.5 μM of Cn1cc(-c2cc(NS(C)(=O)=O)ccc2Oc2ccccc2)c2cc(C(=O)O)[nH]c2c1=O [Example 70] , please.
Solution: 41 min

Problem: Tell me the measured half-life at 0.5 μM of Cn1cc(-c2cc(S(=O)(=O)C3CC3)ccc2Oc2ccc(F)cc2F)c2cc[nH]c2c1=O [Example 290] , please.
Solution: 73 min

Problem: Tell me the measured half-life at 0.5 μM of CCS(=O)(=O)c1ccc(OCC2CC2)c(-c2nn(C)c(=O)c3[nH]ccc23)c1 [Example 204] , please.
Solution: > 120 min

***
Problem: Tell me the measured half-life at 0.5 μM of CCS(=O)(=O)c1ccc(OC2CCN(C(C)=O)CC2)c(-c2cn(C)c(=O)c3[nH]ccc23)c1 [Example 303] , please.
Solution: 42 min
